Each entry below carries its reported Residual BCF OD440nm [%].
- Tested on: E. coli cells expressing an HPPD polypeptide
- procedure-summary: Brown color bioassay in liquid culture, residual brown color formation (BCF), OD440 after 96 hours
- Type: cell-based
- condition-context: brown color formation with Cmpd. 1 (1000 μM) relative to without, after 96 hours
// return numeric value only (unit: %, not printed)

molecule="24 (protein, mutant HPPD polypeptide) MADLYENPMGLMGFEFIEFASPTPGTLEPIFEIMGFTKVATHRSKNVHLYRQGEINLILNNEPNSIASYFAAEHGPSVCGMAFRVKDSQKAYNRALELGAQPIHIDTGPMELNLPAIKGIGGAPLYLIDRFGEGSSIYDIDFVYLEGVERNPVGAGLKVIDHLTHNVYRGRMVYWANFYEKLFNFREARYFDIKGEYTGLTSKAMSAPDGMIRIPLNEESSKGAGQIEEFLMQFNGEGIQHVAFLTDDLVKTWDALKKIGMRFMTAPPDTYYEMLEGRLPDHGEPVDQLQARGILLDGSSVEGDKRLLLQIFSETLMGPVFFEFIQRKGDDGFGPHSFKVLFESVERDQVRRGVLTAD" test_result=48

Now consider the entry below.
Challenge: Endpoint output: Residual BCF OD440nm [%] of 21 (protein, mutant HPPD polypeptide) MADLYENPMGLMGFEFIEFASPTPGTLEPIFEIMGFTKVATHRSKNVHLYRQGEINLILNNEPNSIASYFAAEHGPSVCGMAFRVKDSQKAYNRALELGAQPIHIDTGPMELNLPAIKGIGGAPLYLIDRFGEGSSIYDIDFVYLEGVERNPVGAGLKVIDHLTHNVYRGRMVYWANFYEKLFNFREARYFDIKGEYTGLTSKAMSAPDGMIRIPLNEESSKGAGQIEEFLMQFNGEGIQHVAFLTDDLVKTWDALKKIGMRFMTAPPDTYYEMLEGRLPDHGEPVDQLQARGILLDGSSVEGDKRLLLQIFSETLMGPVFFEFIQRKGDDGFGPHSFKALFESIERDQVRRGVLTAD . Value?
Response given: 65
